Where do the numbers come from? From the supplement of paper PMC4862054.

Test system: HCC1937
Experiment: normalised response (% of control), CellTiter-Glo; higher = more viable cells (100 = DMSO, 0 = benzethonium chloride kill control)
Details: incubation time: 72 h
Give normalised response for every item shown.
One number for each entry, in %.

Consider the worked cases shown below.
compound="C[C@]12C=CC(=O)C=C1CC[C@@H]1[C@@H]2[C@@H](O)C[C@@]2(C)[C@H]1CC[C@]2(O)C(=O)CO [Prednisolone] (1 nM)" numeric_value=96.9
compound="C[C@]12C=CC(=O)C=C1CC[C@@H]1[C@@H]2[C@@H](O)C[C@@]2(C)[C@H]1CC[C@]2(O)C(=O)CO [Prednisolone] (10 nM)" numeric_value=100
compound="CC(=O)OC[C@H]1O[C@@H]([S-])[C@H](OC(C)=O)[C@@H](OC(C)=O)[C@@H]1OC(C)=O.CCP(CC)CC.[Au+] [Auranofin] (2.5 nM)" numeric_value=94.5

Lab note: each compound below needs its normalised response filled in.
1. CCC/C=C/C=C/C(=O)O[C@H]1/C(=C/C(=O)OC)C[C@H]2C[C@H]([C@@H](C)O)OC(=O)C[C@H](O)C[C@@H]3C[C@H](OC(C)=O)C(C)(C)[C@](O)(C[C@@H]4C/C(=C/C(=O)OC)C[C@H](/C=C/C(C)(C)[C@]1(O)O2)O4)O3 [Bryostatin 1] (0.01 nM)
2. C[C@]12C=CC(=O)C=C1CC[C@@H]1[C@@H]2[C@@H](O)C[C@@]2(C)[C@H]1CC[C@]2(O)C(=O)CO [Prednisolone] (1000 nM)

[A]
[98.6, 97.6]
